Tested on: K4 kissing-loop RNA reporter;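 further: bound reporter read as fluorescence of individual clusters on recovered sequencing chips by microscopy, with normalized cluster intensities fitted with a binding model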
Test: apparent KD of K4 kissing-loop reporter; higher = weaker reporter binding
Conditions: Eterna round: R107; input ligand: tryptophan 2.4 mM
property-name: apparent KD of K4 kissing-loop reporter (µM)
Reply numerically in µM, unit not repeated.

Value of apparent KD of K4 kissing-loop reporter reported for the sequence UACAGGGCGAGUGAUGUUUGCUCAUGUGAUACCAGUGCCAUCCAACACCCUUGGCAGCAUGCGGGCAGUGAUGUUGUCCUUGGUU [Exclusion Theophylline A GF11] is 0.249

Value of apparent KD of K4 kissing-loop reporter reported for the sequence GGGCUGGUGCUAGGAUAUGCGAUGAAUGCUCAGGAAACCUUGAGUCCGCAGUGAUGUUGCGGCACCGCAGAAGGAGCUUAGGCUC [Esbequ] is 0.172

Value of apparent KD of K4 kissing-loop reporter reported for the sequence UCGCAUCUCAGAAGGAGCGACAGUGAUUCUGAUAGAAAUCUGAGUGAUGUUCAGAACAGCUGUCAGGUAGGUCGCUGAGAUGCGA [Arg B Ex t8] is 0.314

Value of apparent KD of K4 kissing-loop reporter reported for the sequence GCGUUACUGAAAGGAUAUGAUCAACAUAGUGGUCAGUGAUGUUGGCAGGCCUCGUGGCGAGGUAGAUCAGAAGGUUCAUUACGAC [theeternabot_sameState_KL_FMN_B_11] is 0.482

Value of apparent KD of K4 kissing-loop reporter reported for the sequence AGCCAUCACACGGCCGCCACUGAGUAGUGAUGUUGCUUGUAAAUCAGUCACCGCAUUAAUGCCGACAGGACCGGGUGCAUCGAGG [theeternabot_exclusion_KL_Trp_B_17] is 0.247

Value of apparent KD of K4 kissing-loop reporter reported for the sequence AGUGAUGUGGGAAGGAGCGGUAUAUGAGUUCAGUGAUGUUGAAGUGAUGAUAUAGUGAUGUGCCAGGUAGGUCGCCUAGAUGUUA [KL-XARG-B5] is 0.202

Value of apparent KD of K4 kissing-loop reporter reported for the sequence GAUAGGAAACUAUCAAAUCGGGAAACCGAUACCAGUAUGGAUUCAUACCCUUGGCAGCGGGAUUAUAAAAUAGGAGUGAUGUUCC [Theophylline A K4 16] is 0.189

Value of apparent KD of K4 kissing-loop reporter reported for the sequence AGUGAACGAGCGGCCGCCACUAAAUGAGUGAUGUUCGUGAGUAGUGCUGUUCUCAUGAUUGUUUUUAGGACCGGGUUCGAUGUUG [edcclmullin] is 0.662

Value of apparent KD of K4 kissing-loop reporter reported for the sequence ACGUAGUUCUAGGAUACCAGCCAAGGUCGCCAGGACAAAAGUCCUGGCGCCAGUGAUGUUGGCCCUUGGCAGCCUAGAACUACGA [Omei KL Theo B Exc B v6] is 0.203

Value of apparent KD of K4 kissing-loop reporter reported for the sequence GAGGGCCCUGUAGGAUAUGAGUCUAGUGAUGUUAGGCGGUCCAUGCGCGUGGCGCGUUAUGCCCUUUUAGAAGGACAGGGCUCUC [#2 Exclusion - FMN B Attempt #21 (HarryS)] is 0.0847

Value of apparent KD of K4 kissing-loop reporter reported for the sequence GGAUAGGAUAGAGGAUAUGGCUUAUGCAGAAAUAACUUAUUGUGUAAAUCCAUAGGGAGUGAUGUUCCAGAAGGCUGUCCUAUCG [MatMod 16 - Jieux - Exclusion - FMN B] is 0.202

Value of apparent KD of K4 kissing-loop reporter reported for the sequence UAUACACAGGGAGGAUAUGCCCACACAACAACCGAGUGAUGUUCGGACAAUACACAUAAUACACGGGCAGAAGGCCCACAUCACA [SS FNM B Tesla 1] is 0.139

Value of apparent KD of K4 kissing-loop reporter reported for the sequence AGUGCCGAGUGUGAUACCAGCUUCAUGCAGUGAUGUUGCACACGAGUGAUGUUCGUCCGAGGCCCUUGGCAGCGCAGUCGCUCGA [Same State Theophylline B Gf 30] is 0.67

Value of apparent KD of K4 kissing-loop reporter reported for the sequence UUUUAUUAAUUCUUCUAGUGAUGUUAGAUACGAGGACCGGUACGGCCGCCACUCGCUUAUUGGUUUAUAAAUUUUAUAUUAUUUA [JR_SSTryptoA_Sub016] is 0.249

Value of apparent KD of K4 kissing-loop reporter reported for the sequence AAUAACUAGUAUAUUUUUAAUAAUACAGAUACCAGUGAUAAUAGACACCCUUGGCAGCUGAUCGAGUGAUGUUCGUUUAUUUUAA [#11 K4 Theophylline A Same State] is 0.0647

Value of apparent KD of K4 kissing-loop reporter reported for the sequence UUCUCUCAGGCACGCGAGUGAUGUUCGCGGCGAGGACCGGUACGGCCGCCACUCGCGCCUGAGAGAGGUUAUCAAAGAUAGCCUU [whbob_SS_tryp_A] is 0.208

Value of apparent KD of K4 kissing-loop reporter reported for the sequence UAACUCUUGCAGUGAUGUUGCAAGUAAGCUCAGGAUAUCAGGAAACUGAGAAGGGAGCAUCCUGAGCUUCUGCAAGAGCUCAGAA [KL-SSFMN-A4] is 0.189

Value of apparent KD of K4 kissing-loop reporter reported for the sequence ACGUAUAUCAGAGGAUAUCGUAUUAAUAUUUUAUCUAUAUAUAUAUGCAGUGAUGUUGCUAUAAUUCGAGAAGGCUGAUUUACGA [JR_ExcFMNB_Sub011] is 0.0814

Value of apparent KD of K4 kissing-loop reporter reported for the sequence UGGAGUUGACGAAAAGUCAACUCCUGGGAAGGAGCGGACGAAAGUCCAGGUAGGUCGCCCACUACCAGUGAUGUUGGUACUUCAA is 0.209

Value of apparent KD of K4 kissing-loop reporter reported for the sequence ACUAUCAUUACGCAUGGAGUGAUGUUUCAGCGAGGACCGGUACGGCCGCCACUCGUUACGUGGUUAGAGCCAAUGUUCGAGAAGC [theeternabot_exclusion_KL_Trp_A_39] is 0.52

Value of apparent KD of K4 kissing-loop reporter reported for the sequence AGUCCUAUGACGGCCGCCACUCCGGUUAUGAUUUGCCAAGUGAUGUUUGGGUAUCAGGCGAGGCGGAGGACCGGGUCGACCUGCC [theeternabot_exclusion_KL_Trp_B_18] is 0.152

Value of apparent KD of K4 kissing-loop reporter reported for the sequence CGCGACGUGGUCACGCCAGUCUCGUUAACCAAGGAUAUUGAGAAGACAAGAAGGUGGAUGUACCAUAGUGAUGUUGUGGUCAGUA [theeternabot_sameState_KL_FMN_A_17] is 0.388

Value of apparent KD of K4 kissing-loop reporter reported for the sequence UGAUUUAACUGAAGGAGCGGCAAUUGAUAAGUAAAUAUAGUGAUGUUAUAUAAGAUAGAGAGCCAGGUAGGUCGCAGAGGUAUUU [ExArgB.N] is 0.141
